Provide the reported TGI of each item.
- Test system: RXF 393 renal
- protocol.details: NCI tumour cell line growth inhibition, 48 h

CC(C)(O)c1cc(Nc2cc(Oc3cn(C4CC4)nc3C3CCOCC3)ccn2)ccn1 | > 100 µM
O=C(Cc1nc2ccccc2s1)C(=O)Nc1cccc(C(F)(F)F)c1 | > 100 µM
C=CCN1C(=O)C[C@H](Cc2ccccc2)NC(=O)C[C@H](Cc2ccccc2)N(CC=C)C(=O)C[C@H](Cc2ccccc2)NC(=O)C[C@@H]1Cc1ccccc1 | > 100 µM

Quick batch: TGI for everything below.
1. C[C@@H]1CC2(C[C@@H](C)C3[C@@H](CC4(C)CCCC5C6=CC(O)(CC[C@]34C)OC6=CC(=O)OC5(C)C)O2)OC1=O (stereo partly specified)
2. COc1cc(/C=C2\N=C(c3ccccc3)N(c3cc4cc(Sc5ccccc5)ccc4[nH]3)C2=O)ccc1O
3. C=C(c1ccccc1)c1cc2c(=O)[nH]ccc2n1C
4. Cc1c(C(=O)O)sc2nc[nH]c(=O)c12

> 100 µM
27.4 µM
86.1 µM
> 100 µM
